# Target System: human μ opiate receptor (Homo sapiens)
# Construct: purchased PerkinElmer Life Sciences, Zaventem, Belgium RB-HOM; host or cells: CHO-K1 cells (recombinant expression)
# Sequence (P35372 whole entry): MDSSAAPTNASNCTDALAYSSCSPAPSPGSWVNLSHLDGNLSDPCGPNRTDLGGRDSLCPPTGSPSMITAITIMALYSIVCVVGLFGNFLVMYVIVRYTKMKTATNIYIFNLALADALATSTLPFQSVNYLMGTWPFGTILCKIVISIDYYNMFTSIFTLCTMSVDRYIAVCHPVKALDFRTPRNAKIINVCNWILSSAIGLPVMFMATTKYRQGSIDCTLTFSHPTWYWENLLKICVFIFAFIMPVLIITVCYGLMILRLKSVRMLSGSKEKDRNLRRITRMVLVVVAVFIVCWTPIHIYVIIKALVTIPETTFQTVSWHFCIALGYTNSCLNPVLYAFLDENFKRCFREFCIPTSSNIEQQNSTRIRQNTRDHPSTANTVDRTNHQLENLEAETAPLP
# Measurement Protocol: Affinity for the human μ opiate receptor ([3H]-naloxone displacement, CHO-K1 membrane preparation, SPA)
# Type: binding
# Condition Notes: compounds prepared via automated synthesis; single measurements at a test concentration of 1 μM
Grouping rule (μ opioid receptor [1 μmol], % inhibition): lower level (below 20%), middle level (20% to below 40%), upper level (40% or more)

Here are 5 molecules together with their reported answers.
Molecule	Assigned Class
COc1cccc(CC(=O)N2CCc3c([nH]c4ccccc34)C23CCC(C(c2ccccc2)N(C)C)CC3)c1 (centres unmarked)	upper level
CC(C)CC(=O)N1CCc2c([nH]c3ccccc23)C12CCC(C(c1ccccc1)N(C)C)CC2 (centres unmarked)	upper level
CN(C)C(c1ccc(Cl)cc1)C1CCC2(CC1)c1[nH]c3ccccc3c1CCN2C(=O)CCC1CCCC1 (centres unmarked)	lower level
CCC(=O)N1CCc2c([nH]c3ccccc23)C12CCC(C(c1cccc(F)c1)N(C)C)CC2 (centres unmarked)	lower level
CC(=Cc1ccccc1)C(=O)N1CCc2c([nH]c3ccccc23)C12CCC(C(c1ccccc1)N(C)C)CC2 (centres unmarked)	upper level

Request: Dear colleague, I would appreciate it if you could identify the bin for CCC(=O)N1CCc2c([nH]c3ccccc23)C12CCC(C(c1ccc(Cl)cc1)N(C)C)CC2 (centres unmarked) and reply at your convenience.
Result: middle level

Request: Here is the next molecule: CN(C)C(c1ccccc1)C1CCC2(CC1)c1[nH]c3ccccc3c1CCN2C(=O)c1csc2ccccc12 (centres unmarked)
Result: lower level

Request: // repeat for CCCCC(CC)C(=O)N1CCc2c([nH]c3ccccc23)C12CCC(C(c1ccccc1)N(C)C)CC2 (centres unmarked) and report
Result: upper level

Request: Next: CC(C)CC(=O)N1CCc2c([nH]c3ccccc23)C12CCC(C(c1cccc(F)c1)N(C)C)CC2 (centres unmarked)
Result: upper level

Request: What would you report for CN(C)C(c1ccccc1)C1CCC2(CC1)c1[nH]c3ccccc3c1CCN2C(=O)COc1ccc(Cl)cc1 (centres unmarked) ?
Result: middle level

Request: Check COc1ccc(CC(=O)N2CCc3c([nH]c4ccccc34)C23CCC(C(c2ccc(Cl)cc2)N(C)C)CC3)cc1OC (centres unmarked) too.
Result: middle level

Request: One more molecule: CC(=Cc1ccccc1)C(=O)N1CCc2c([nH]c3ccccc23)C12CCC(C(c1ccc(F)cc1)N(C)C)CC2 (centres unmarked)
Result: lower level

Request: Now give it for CN(C)C(c1ccc(F)cc1)C1CCC2(CC1)c1[nH]c3ccccc3c1CCN2C(=O)C=Cc1ccccc1 (centres unmarked) too.
Result: lower level

Request: Then what about the molecule CC(=O)N1CCc2c([nH]c3ccccc23)C12CCC(C(c1cccc(F)c1)N(C)C)CC2 (centres unmarked) ?
Result: lower level
